- Target Under Test: UniProtKB P21462
- Sequence (P21462 whole entry): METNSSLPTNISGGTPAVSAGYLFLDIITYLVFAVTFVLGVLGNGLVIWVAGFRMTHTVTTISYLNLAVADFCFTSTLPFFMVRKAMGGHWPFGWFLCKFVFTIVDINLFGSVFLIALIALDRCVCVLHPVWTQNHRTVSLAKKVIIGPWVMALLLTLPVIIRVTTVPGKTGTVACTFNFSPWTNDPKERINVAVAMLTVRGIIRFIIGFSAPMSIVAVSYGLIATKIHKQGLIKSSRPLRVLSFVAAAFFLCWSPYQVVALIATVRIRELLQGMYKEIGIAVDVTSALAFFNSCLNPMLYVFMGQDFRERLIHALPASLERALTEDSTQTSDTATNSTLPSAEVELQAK
- Experiment: FPR1 cyclic adenosine monophosphate (cAMP) assay
- Recorded Conditions: CHO cells overexpressing human FPR1; forskolin 10 μM; inhibition of cAMP production; HTRF; read-out: hFPR1 cAMP2 EC50
pEC50: −log10 of the molar value.
Parameter: pEC50

COc1cc(F)c(-c2c(NC(=O)c3ccc(OC(F)F)cc3)c(=O)n(C(C)C)n2C)c(F)c1 : 5.39
COc1cc(F)c(-c2c(NC(=O)c3ccc(OC(F)F)cc3)c(=O)n(-c3cncc(Cl)c3)n2C)c(F)c1 : 5.72
COc1cc(F)c(-c2c(NC(=O)c3ccc(OC(F)(F)F)cc3)c(=O)n(-c3cccc(OC)n3)n2C)c(F)c1 : 6.09
COc1cc(F)c(-c2c(NC(=O)c3ccc(OC(F)F)cc3)c(=O)n(-c3cc(OCCO)cc(C(F)(F)F)n3)n2C)c(F)c1 : 5.66
COc1cc(F)c(-c2c(NC(=O)c3ccc(OC(F)F)cc3)c(=O)n(-c3ccc(C4CC4)cn3)n2C)c(F)c1 : 6.34

(P) COc1cc(F)c(-c2c(NC(=O)c3ccc(OC(F)F)cc3)c(=O)n(-c3cccc(C#N)c3F)n2C)c(F)c1
(Q) COc1cc(F)c(-c2c(NC(=O)c3ccc(OC(F)F)cc3)c(=O)n(C3CC3)n2C)c(F)c1
(R) CCOc1ccnc(-n2c(=O)c(NC(=O)c3ccc(OC(F)F)cc3)c(-c3c(F)cc(OC)cc3F)n2C)c1
Would you mind ranking these molecules by ascending pEC50? Answer by naming the labels in the order asked.
R, Q, P
(R: 5.02, Q: 5.62, P: 6.72)

* * *

- Target Under Test: UniProt:P25090
- Sequence (P25090 whole entry): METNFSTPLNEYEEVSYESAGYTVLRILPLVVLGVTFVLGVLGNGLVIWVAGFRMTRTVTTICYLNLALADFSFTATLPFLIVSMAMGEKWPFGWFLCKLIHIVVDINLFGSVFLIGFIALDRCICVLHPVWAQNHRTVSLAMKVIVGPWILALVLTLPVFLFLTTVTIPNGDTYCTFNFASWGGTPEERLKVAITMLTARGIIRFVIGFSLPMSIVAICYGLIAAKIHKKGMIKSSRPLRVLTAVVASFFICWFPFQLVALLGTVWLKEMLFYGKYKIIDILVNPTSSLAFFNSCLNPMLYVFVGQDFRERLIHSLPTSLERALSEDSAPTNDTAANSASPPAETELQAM
- Experiment: FPR2 cyclic adenosine monophosphate (cAMP) assay
- Type: cell-based
- Recorded Conditions: CHO cells overexpressing human FPR2; forskolin 5 μM; inhibition of cAMP production; HTRF; read-out: hFPR2 cAMP2 EC50
Parameter: EC50 (nM)

Example entries begin here.
COc1cc(F)c(-c2c(NC(=O)c3ccc(OC(F)F)cc3)c(=O)n(-c3cncc(C)n3)n2C)c(F)c1 : 11
COc1cc(F)c(-c2c(NC(=O)c3ccc(OC(F)F)cc3)c(=O)n(-c3nc(C(F)(F)F)ccc3OCC3CCOC3)n2C)c(F)c1 (stereo not shown) [Example 369] : 5
COc1cc(F)c(-c2c(NC(=O)c3ccc(OC(F)F)cc3)c(=O)n(-c3nc(Cl)ccc3F)n2C)c(F)c1 : 6
COc1cc(F)c(-c2c(NC(=O)c3ccc(OC(F)F)cc3)c(=O)n(-c3ccc(-c4ccccc4)cn3)n2C)c(F)c1 : 18
COc1cc(F)c(-c2c(NC(=O)c3ccc(OC(F)F)cc3)c(=O)n(-c3nc(C(C)(C)O)ccc3C(F)(F)F)n2C)c(F)c1 : 5
COc1cc(F)c(-c2c(NC(=O)c3ccc(OC(F)F)cc3)c(=O)n(-c3ccc(OCCO)cn3)n2C)c(F)c1 : 4

(P) COc1cc(N2CCOCC2)nc(-n2c(=O)c(NC(=O)c3ccc(OC(F)F)cc3)c(-c3c(F)cc(OC)cc3F)n2C)c1
(Q) COc1cc(F)c(-c2c(NC(=O)c3ccc(OC(F)F)cc3)c(=O)n(-c3cc(F)ccc3C)n2C)c(F)c1
(R) COc1cc(F)c(-c2c(NC(=O)c3ccc(OC(F)F)cc3)c(=O)n(-c3cc(OCC4CCCO4)cc(C)n3)n2C)c(F)c1 (stereo not shown) [Example 391]
List from greatest to least EC50. Rank the items, then write their labels in that order.
P, Q, R
(P: 62 nM, Q: 23 nM, R: 6 nM)

(1) COc1cc(F)c(-c2c(NC(=O)c3ccc(OC(F)F)cc3)c(=O)n(-c3nc(N4CC[C@@H](CO)C4)ccc3C(F)(F)F)n2C)c(F)c1
(2) COc1cc(F)c(-c2c(NC(=O)c3ccc(OC(F)F)cc3)c(=O)n(-c3nc(S(C)(=O)=O)ccc3C(F)(F)F)n2C)c(F)c1
Between 1 and 2 , which one shows the larger EC50 value? Answer with the label corresponding to your selection.
2
(2: 7 nM, 1: 2 nM)

(1) COc1cc(F)c(-c2c(NC(=O)c3ccc(OC(F)F)cc3)c(=O)n(-c3nc(C)ccc3C#N)n2C)c(F)c1
(2) Cn1c(-c2c(F)cc(Cl)cc2F)c(NC(=O)c2ccc(OC(F)F)cc2)c(=O)n1-c1cccc(C(C)(C)O)n1
Kindly identify the item with the lower EC50 figure among these two: 1 and 2 Please indicate the selected item by its label.
1
(1: 5 nM, 2: 23 nM)
